All values here come from patent US9902728B2.

# Assay Target: USP7 (Homo sapiens)
# Construct: USP7, construct USP7 (208-1102) 6*His, Viva Biotech; 6xHis (C); purchased Viva Biotech
# Sequence (Q93009 208-1102): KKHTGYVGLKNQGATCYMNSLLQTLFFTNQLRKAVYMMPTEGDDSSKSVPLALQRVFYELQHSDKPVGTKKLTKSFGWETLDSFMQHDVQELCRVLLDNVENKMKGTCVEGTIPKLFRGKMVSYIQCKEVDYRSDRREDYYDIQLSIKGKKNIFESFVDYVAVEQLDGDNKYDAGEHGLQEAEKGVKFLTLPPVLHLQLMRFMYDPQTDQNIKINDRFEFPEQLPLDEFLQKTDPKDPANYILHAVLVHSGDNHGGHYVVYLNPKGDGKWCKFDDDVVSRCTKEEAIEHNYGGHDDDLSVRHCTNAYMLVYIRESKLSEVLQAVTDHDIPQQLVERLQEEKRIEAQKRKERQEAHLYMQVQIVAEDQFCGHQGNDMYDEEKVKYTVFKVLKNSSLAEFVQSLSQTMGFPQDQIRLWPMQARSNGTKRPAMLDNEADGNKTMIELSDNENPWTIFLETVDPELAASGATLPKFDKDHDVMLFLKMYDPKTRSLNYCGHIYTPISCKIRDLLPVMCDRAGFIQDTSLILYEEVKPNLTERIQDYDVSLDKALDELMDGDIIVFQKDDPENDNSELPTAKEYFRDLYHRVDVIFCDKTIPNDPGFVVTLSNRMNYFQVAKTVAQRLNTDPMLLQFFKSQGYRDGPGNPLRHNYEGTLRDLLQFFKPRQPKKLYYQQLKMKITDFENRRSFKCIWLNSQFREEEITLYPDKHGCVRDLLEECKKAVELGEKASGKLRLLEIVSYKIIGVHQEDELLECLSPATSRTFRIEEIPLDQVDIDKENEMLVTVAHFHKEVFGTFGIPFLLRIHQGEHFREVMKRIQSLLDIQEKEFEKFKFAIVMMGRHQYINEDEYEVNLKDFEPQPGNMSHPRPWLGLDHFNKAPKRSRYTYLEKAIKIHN
# Test Details: USP7 Assay A (Ubitquin-Rhodamine 110 Assay)
# Assay type: biochemical
# Assay Context: USP7 activity in USP7 assay A and B (table does not say which assay per compound); read-out: USP7_IC50
# Description: Each assay was performed in a final volume of 15 μL in assay buffer containing 20 mM Tris-HCl (pH 8.0, (1M Tris-HCl, pH 8.0 solution; Corning 46-031-CM)), 1 mM GSH (L-Glutathione reduced; Sigma #G4251), 0.03% BGG ([…], Sigma, #G7516-25G), and 0.01% Triton X-100 (Sigma, #T9284-10L). […] Fluorescence was read on the Envision (Excitation at 485 nm and Emission at 535 nm; Perkin Elmer) or on the PheraSTAR (Excitation at 485 nm and Emission at 535 nm; BMG Labtech). […]
Metric Name: IC50

{"columns": ["Compound", "Assay Target", "Metric Name", "Result"],
 "data": [
  ["O=C(C[C@@H](C(F)F)n1ccc(F)n1)N1CCC(O)(Cn2cnc3c(cnn3-c3ccc(N4CC5CC5C4)cc3)c2=O)CC1 (stereo partly shown)", "USP7 (Homo sapiens)", "IC50", "< 0.2 µM"],
  ["O=C(C[C@@H](C(F)F)n1cc(F)cn1)N1CCC(O)(Cn2cnc3c(cnn3-c3ccc(F)cc3)c2=O)CC1", "USP7 (Homo sapiens)", "IC50", "> 10 µM"],
  ["Cn1cc(C2CCC(C(=O)N3CCC(O)(Cn4cnc5c(cnn5-c5ccc(F)cc5)c4=O)CC3)CC2)cn1 (stereo not shown) [Compound I-727]", "USP7 (Homo sapiens)", "IC50", "0.2 to 1 µM"],
  ["Cc1ccnc(-c2ccc(-n3ncc4c(=O)n(CC5(O)CCN(C(=O)C6CC6)CC5)cnc43)cc2)c1", "USP7 (Homo sapiens)", "IC50", "1 to 10 µM"],
  ["Cn1ccc(OC2CCC(C(=O)N3CCC(O)(Cn4cnc5c(cnn5-c5ccc(F)cc5)c4=O)CC3)CC2)n1 (stereo not shown) [Compound I-754]", "USP7 (Homo sapiens)", "IC50", "0.2 to 1 µM"],
  ["CC(=O)N1C[C@@H]2C[C@H]1CN2c1cccc(-n2ncc3c(=O)n(CC4(O)CCN(C(=O)C5(C)CC5)CC4)cnc32)c1", "USP7 (Homo sapiens)", "IC50", "0.2 to 1 µM"]
]}

(Q) Using the record for O=C(C1CCC(Oc2cccc(N3CCC3)n2)CC1)N1CCC(O)(Cn2cnc3c(cnn3-c3ccc(F)cc3)c2=O)CC1 (stereo not shown) , report its IC50.
(A) < 0.2 µM

(Q) Fill in the blank: the reported IC50 of `O=C(c1cnc(N2CCOCC2)o1)N1CCC(O)(Cn2cnc3c(cnn3-c3ccc(-c4ccccc4)cc3)c2=O)CC1` is ____.
(A) 0.2 to 1 µM

(Q) Consider the compound shown here: `CC1(C(=O)N2CCC(O)(Cn3cnc4c(cnn4-c4ccc(N5CCC(C#N)CC5)cc4)c3=O)CC2)CC1` What is its recorded IC50?
(A) 0.2 to 1 µM

(Q) Can you look up the measured IC50 of `O=C(c1ccc(-n2cnnc2)cc1)N1CCC(O)(Cn2cnc3c(cnn3-c3ccc(Cl)cc3)c2=O)CC1` for me?
(A) 1 to 10 µM

(Q) Given C=CC(=O)N1CCC1C(=O)N1CCC(O)(Cn2cnc3c(cnn3-c3ccc(N4CCN(C)CC4)cc3)c2=O)CC1 (stereo not shown) , state its recorded IC50.
(A) < 0.2 µM

(Q) Request the reported IC50 associated with `C[C@@]1(O)CCN(c2ccc(-n3ncc4c(=O)n(CC5(O)CCN(C(=O)C[C@H](C(F)F)n6cccn6)CC5)cnc43)cc2)C1`
(A) 1 to 10 µM

(Q) Give the measured IC50 of `O=C(C[C@H](C(F)F)n1ccc(F)n1)N1CCC(O)(Cn2cnc3c(cnn3-c3ccc(F)cc3)c2=O)CC1` .
(A) 0.2 to 1 µM
